Attribution: paper PMC10384010

Test: HPLC on IAM (immobilized artificial membrane) column, retention factor
Type: physicochemical
Details: logarithm of retention factor; IAM.PC.DD.2 column; phosphate buffer pH 7.4:acetonitrile 80:20
# logkIAM per record follows
Answer with a number only.

Take a look at these entries with their results.
>>> recorded_value("CCCc1nn(C)c2c(=O)[nH]c(-c3cc(S(=O)(=O)N4CCN(C)CC4)ccc3OCC)nc12")
1.15
>>> recorded_value("O=C1Nc2ccc(Cl)cc2C(c2ccccc2)=NC1O (centres unmarked)")
0.68
>>> recorded_value("Cc1ncc2n1-c1ccc(Cl)cc1C(c1ccccc1F)=NC2")
0.76
>>> recorded_value("CN1CCC(=C2c3ccccc3CC(=O)c3sccc32)CC1")
1.34
>>> recorded_value("O=C(CCCN1CCC(O)(c2ccc(Cl)cc2)CC1)c1ccc(F)cc1")
1.38

Query :: Need logkIAM, item O[C@@H]1CO[C@H]2[C@@H]1OC[C@@H]2O [isosorbide]
Result :: -0.68

Query :: Quick one: `CC[C@H]1OC(=O)[C@H](C)[C@@H](O[C@H]2C[C@@](C)(OC)[C@@H](O)[C@H](C)O2)[C@H](C)[C@@H](O[C@@H]2O[C@H](C)C[C@H](N(C)C)[C@H]2O)[C@](C)(OC)C[C@@H](C)C(=O)[C@H](C)[C@@H](O)[C@]1(C)O`
Result :: -1.02

Query :: Quick one: CC(C)Cc1ccc(C(C)C(=O)O)cc1 (centres unmarked)
Result :: -0.07

Query :: Quick one: `Cc1nc2n(c(=O)c1CCN1CCC(c3noc4cc(F)ccc34)CC1)CCCC2`
Result :: 0.68

###

Assay: HPLC on IAM (immobilized artificial membrane) column, retention factor
Type: physicochemical
Conditions: IAM.PC.DD.2 column; 10 mM phosphate buffer pH 7.4:acetonitrile 80:20
Cut-off 30 on k(IAM) retention factor, inclusive. At or above means y; below means n.

>>> category_label("CNC(=C[N+](=O)[O-])NCCSCc1ccc(CN(C)C)o1")
"n"
>>> category_label("C[C@](N)(Cc1ccc(O)c(O)c1)C(=O)O")
"n"
>>> category_label("CN1CCN(C2=Nc3cc(Cl)ccc3Nc3ccccc32)CC1")
"y"
>>> category_label("CC(CN1c2ccccc2Sc2ccccc21)N(C)C (stereo not shown)")
"n"
>>> category_label("CN(C)CCC[C@@]1(c2ccc(F)cc2)OCc2cc(C#N)ccc21")
"y"

Query :: Does k(IAM) retention factor meet or surpass 30 for CCN(CC)CC#CCOC(=O)C(O)(c1ccccc1)C1CCCCC1 (stereo not shown) ?
Result :: y

Query :: Quick one: `CCCc1nc2c(C)cc(-c3nc4ccccc4n3C)cc2n1Cc1ccc(-c2ccccc2C(=O)O)cc1`
Result :: n

Query :: Quick one: COCCc1ccc(OCC(O)CNC(C)C)cc1 (stereo not shown)
Result :: n

Query :: Quick one: `Clc1ccc2c(c1)CCc1cccnc1C2=C1CCNCC1`
Result :: y

Query :: Quick one: O[C@@H]1CO[C@H]2[C@@H]1OC[C@@H]2O [isosorbide]
Result :: n

###

Assay: Normal-phase TLC on silica gel 60 F254 (Rf)
Type: physicochemical
Settings: water:methanol:acetonitrile 60:20:20, ammonium acetate pH 7.4
# class assignment by measured NP (Rf from NP TLC plate): low group = under 0.5, middle group = from 0.5 up to 0.9, high group = 0.9 and over

Use the examples below as a reference point.
>>> category_label("CN(C)C(=N)N=C(N)N")
"low group"
>>> category_label("CN(C)CCCN1c2ccccc2CCc2ccc(Cl)cc21")
"low group"
>>> category_label("CN(C)CCC=C1c2ccccc2CCc2ccccc21")
"low group"
>>> category_label("O=C(O)COCCN1CCN([C@H](c2ccccc2)c2ccc(Cl)cc2)CC1")
"middle group"
>>> category_label("CN(C)C(=O)C(CCN1CCC(O)(c2ccc(Cl)cc2)CC1)(c1ccccc1)c1ccccc1 [loperamide]")
"middle group"
>>> category_label("NC(N)=Nc1nc(CSCCC(N)=NS(N)(=O)=O)cs1")
"middle group"
>>> category_label("C[C@]12CC[C@@H]3c4ccc(O)cc4CC[C@H]3[C@@H]1CCC2=O")
"high group"
>>> category_label("CC(C)NCC(O)COc1ccc(COCCOC(C)C)cc1 (stereo not drawn)")
"middle group"
>>> category_label("CC(C)NCC(O)c1ccc(NS(C)(=O)=O)cc1 (stereo not drawn)")
"low group"
>>> category_label("Nc1cc(N2CCCCC2)nc(N)[n+]1[O-]")
"low group"

Field: next compound
Query :: Using the reported NP (Rf from NP TLC plate), which band applies to CCN(CC)CC#CCOC(=O)C(O)(c1ccccc1)C1CCCCC1 (stereo not drawn) ?
Result :: middle group

###

Test: Normal-phase TLC on silica gel 60 F254 (Rf)
Assay type: physicochemical
Conditions: water:methanol:acetonitrile 60:20:20, ammonium acetate pH 7.4
# NP (Rf from NP TLC plate) per record follows

>>> recorded_value("CCCc1nc2c(C)cc(-c3nc4ccccc4n3C)cc2n1Cc1ccc(-c2ccccc2C(=O)O)cc1")
0.9
>>> recorded_value("CC(=O)[C@H]1CC[C@H]2[C@@H]3CCC4=CC(=O)CC[C@]4(C)[C@H]3CC[C@]12C")
0.96
>>> recorded_value("Cc1cnc(NC(=O)C2=C(O)c3ccccc3S(=O)(=O)N2C)s1")
0.99

Query :: Need NP (Rf from NP TLC plate), item `O=C1CC2(CCCC2)CC(=O)N1CCCCN1CCN(c2ncccn2)CC1`
Result :: 0.57

Query :: Quick one: `CCC(C)(C)C(=O)O[C@H]1C[C@@H](C)C=C2C=C[C@H](C)[C@H](CC[C@@H]3C[C@@H](O)CC(=O)O3)[C@H]21`
Result :: 0.19

Query :: Quick one: `O=c1n(CCCN2CCN(c3cccc(Cl)c3)CC2)nc2ccccn12`
Result :: 0.71

###

Assay: Normal-phase TLC on silica gel 60 F254 (Rf)
Format: physicochemical
Conditions: water:methanol:acetonitrile 60:20:20, ammonium acetate pH 7.4
Property Label: NP (Rf from NP TLC plate)
Answer with a number only.

Take a look at these entries with their results.
>>> recorded_value("CN1CCN=C(c2ccccc2)c2cc(Cl)ccc21")
0.91
>>> recorded_value("CN1CCN(C2=Nc3cc(Cl)ccc3Nc3ccccc32)CC1")
0.45
>>> recorded_value("C[C@]12CC[C@@H]3c4ccc(OC(=O)c5ccccc5)cc4CC[C@H]3[C@@H]1CC[C@@H]2O [estradiol benzoate]")
0.97
>>> recorded_value("Clc1cccc(Cl)c1N=C1NCCN1")
0.49
>>> recorded_value("CC(=O)OCC(=O)[C@@]1(O)CC[C@H]2[C@@H]3CCC4=CC(=O)CC[C@]4(C)[C@H]3[C@@H](O)C[C@@]21C [hydrocortisone acetate]")
0.96
>>> recorded_value("COC(=O)c1ccc(O)cc1")
0.97
>>> recorded_value("CCCCCOC(=O)Nc1nc(=O)n([C@@H]2O[C@H](C)[C@@H](O)[C@H]2O)cc1F")
0.92
>>> recorded_value("CCOC(=O)C1=C(C)NC(C)=C(C(=O)OC)C1c1cccc([N+](=O)[O-])c1 (stereo not drawn)")
0.97

Please find the next molecule below.
Query :: Need NP (Rf from NP TLC plate), item `Fc1ccc([C@@H]2CCNC[C@H]2COc2ccc3c(c2)OCO3)cc1`
Result :: 0.55

###

Test: Normal-phase TLC on silica gel 60 F254 (Rf)
Format: physicochemical
Details: water:methanol:acetonitrile 60:20:20, ammonium acetate pH 7.4
# NP (Rf from NP TLC plate) per record follows
Answer with a number only.

>>> recorded_value("CN[C@H]1CC[C@@H](c2ccc(Cl)c(Cl)c2)c2ccccc21")
0.53

Query :: Need NP (Rf from NP TLC plate), item CN(C)CCOC(c1ccccc1)c1ccccc1 [diphenhydramin]
Result :: 0.42

Query :: Quick one: CCC(C)n1ncn(-c2ccc(N3CCN(c4ccc(OCC5COC(Cn6cncn6)(c6ccc(Cl)cc6Cl)O5)cc4)CC3)cc2)c1=O (centres unmarked)
Result :: 0.96

Query :: Quick one: CCN(Cc1ccncc1)C(=O)C(CO)c1ccccc1 (centres unmarked)
Result :: 0.85

Query :: Quick one: `CC[C@@H](CO)NCCN[C@@H](CC)CO`
Result :: 0.19

Query :: Quick one: `CCC[C@H](N[C@@H](C)C(=O)N1[C@H](C(=O)O)C[C@@H]2CCCC[C@@H]21)C(=O)OCC`
Result :: 0.47

Query :: Quick one: CCCNCC(O)COc1ccccc1C(=O)CCc1ccccc1 (centres unmarked)
Result :: 0.57

Query :: Quick one: `CC(C)c1nc(N(C)S(C)(=O)=O)nc(-c2ccc(F)cc2)c1/C=C/[C@@H](O)C[C@@H](O)CC(=O)O`
Result :: 0.9

###

# logkIAM per record follows
Assay: HPLC on IAM (immobilized artificial membrane) column, retention factor
Assay type: physicochemical
Details: logarithm of retention factor; IAM.PC.DD.2 column; phosphate buffer pH 7.4:acetonitrile 80:20
Answer with a number only.

Take a look at these entries with their results.
>>> recorded_value("CC(C(=O)O)c1cccc(C(=O)c2ccccc2)c1 (stereo not drawn)")
-0.71
>>> recorded_value("CC(C)NCC(O)COc1cccc2[nH]ccc12 (stereo not drawn)")
0.78
>>> recorded_value("CN1C(C(=O)Nc2ccccn2)=C(O)c2ccccc2S1(=O)=O")
-0.79
>>> recorded_value("O=c1n(CCCN2CCN(c3cccc(Cl)c3)CC2)nc2ccccn12")
0.97
>>> recorded_value("Cc1cnc(NC(=O)C2=C(O)c3ccccc3S(=O)(=O)N2C)s1")
-0.31

Query :: Need logkIAM, item Cc1ccc(S(=O)(=O)NC(=O)NN2CC3CCCC3C2)cc1 (stereo not drawn) [gliclazide]
Result :: -0.55

Query :: Quick one: `CO/N=C(\C(=O)N[C@@H]1C(=O)N2C(C(=O)O)=C(COC(N)=O)CS[C@H]12)c1ccco1`
Result :: 0.23

Query :: Quick one: OCCOCCN1CCN(C(c2ccccc2)c2ccc(Cl)cc2)CC1 (stereo not drawn) [hydroxyzine]
Result :: 1.14

Query :: Quick one: `COC(=O)[C@@H]1CC2=CC(=O)CC[C@]2(C)[C@@]23O[C@@H]2C[C@@]2(C)[C@@H](CC[C@@]24CCC(=O)O4)[C@H]13`
Result :: 0.19

Query :: Quick one: `CC(=O)[C@H]1CC[C@H]2[C@@H]3CCC4=CC(=O)CC[C@]4(C)[C@H]3CC[C@]12C`
Result :: 1.54

Query :: Quick one: CN1CCN2c3ccccc3Cc3ccccc3C2C1 (stereo not drawn)
Result :: 1.34

Query :: Quick one: `CN(C)CCc1c[nH]c2ccc(Cn3cncn3)cc12`
Result :: 0.40

Query :: Quick one: `COc1ccc(CCN2CCC(Nc3nc4ccccc4n3Cc3ccc(F)cc3)CC2)cc1`
Result :: 1.42

Query :: Quick one: `CN1CCC(=C2c3ccccc3C=Cc3ccccc32)CC1`
Result :: 1.38
